Experiment: Cell viability assay (resazurin), BJhTERT non-transformed control
Assay type: cell-based
Details: human, BJhTERT immortalized fibroblast cells, BJhTERT, Log conc. (M) 0.0001; read-out: cell viability, cytotoxicity curve (Figure3H)
Recorded Metric: viability at 72 h, 0.0001 M (%)
Answer format: numeric, % implied, no suffix.

[ask] Look up viability at 72 h, 0.0001 M for this compound: O=C(Nc1ccc(I)cc1)N1CCC(n2c(=O)[nH]c3c(Br)cccc32)CC1 [TH5487, reference compound]
[reply] 5.37

====

Biological target: human OGG1 enzyme (Homo sapiens, UniProt O15527)
Sequence (O15527 whole entry): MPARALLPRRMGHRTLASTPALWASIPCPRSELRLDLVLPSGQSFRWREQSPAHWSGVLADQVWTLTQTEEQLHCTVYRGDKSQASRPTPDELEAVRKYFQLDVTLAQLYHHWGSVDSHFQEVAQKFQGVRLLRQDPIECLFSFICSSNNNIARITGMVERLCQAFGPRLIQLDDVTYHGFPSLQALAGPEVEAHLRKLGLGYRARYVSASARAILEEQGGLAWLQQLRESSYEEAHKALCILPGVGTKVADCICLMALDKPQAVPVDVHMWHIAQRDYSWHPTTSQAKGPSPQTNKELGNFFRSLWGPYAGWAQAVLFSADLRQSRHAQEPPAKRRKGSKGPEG
Test: Differential scanning fluorimetry (DSF) thermal shift assay
Type: binding
Details: 99 μM
Answer F if ∆Tm (K) is under 0.4 K, and T if it is 0.4 K or more.

- Molecule: "Cc1nc(-c2ccc(CC(=O)Nc3noc4c3CCCC4)c(C)c2)c(C)[nH]1 [compound 19]"
  Experimental Target: "human OGG1 enzyme (Homo sapiens, UniProt O15527)"
  Discrete Label: "T"
- Molecule: "Cc1nn(-c2ccc(CC(=O)Nc3noc4c3CCCC4)cc2)c2ccccc12 [compound 10]"
  Experimental Target: "human OGG1 enzyme (Homo sapiens, UniProt O15527)"
  Discrete Label: "T"
- Molecule: "Cn1c(=O)n(C)c2cc(Nc3ncnc4ccccc34)ccc21 [ZINC000358521717]"
  Experimental Target: "human OGG1 enzyme (Homo sapiens, UniProt O15527)"
  Discrete Label: "T"

Moving on to another molecule below.
[ask] # bool: ∆Tm (K) of Cc1cc(C2CC2)n(-c2ccc(CC(=O)Nc3noc4c3CCCC4)cc2)n1 [compound 9] >= 0.4 K
[reply] T
